# Assay Comment: reporter assay of Huesken 2005
# Setup Conditions: siRNA
Oligonucleotides are written 5' to 3', each unit as a sugar letter and its base; * is a phosphorothioate linkage, no mark a phosphodiester; rarer units and linkages stand in square brackets, end groups in braces. Plain capitals give the bases only. d = 2'-deoxy (DNA); r = 2'-OH (RNA)
We use 80% as the dividing line for normalised inhibition (eCFP-eYFP dual reporter): on or above the line is True, below is False.

sense rArGrArArCrArCrCrCrArGrGrArArUrUrCrUrUdTdT / antisense rArArGrArArUrUrCrCrUrGrGrGrUrGrUrUrCrUdGdT; True
sense rArGrArArGrArArArCrUrUrGrCrUrCrCrArGrAdTdT / antisense rUrCrUrGrGrArGrCrArArGrUrUrUrCrUrUrCrUdCdA; True
sense rUrGrCrCrCrArUrUrGrUrGrUrUrCrCrCrUrUrGdTdT / antisense rCrArArGrGrGrArArCrArCrArArUrGrGrGrCrAdGdG; True
sense rCrUrUrArGrUrCrCrCrCrUrCrUrUrUrCrUrGrGdTdT / antisense rCrCrArGrArArArGrArGrGrGrGrArCrUrArArGdGdG; True
sense rGrGrCrArGrGrArGrArUrArGrCrCrCrArGrGrGdTdT / antisense rCrCrCrUrGrGrGrCrUrArUrCrUrCrCrUrGrCrCdAdC; False
sense rArUrUrGrUrUrCrCrUrGrUrGrArArCrUrGrUrGdTdT / antisense rCrArCrArGrUrUrCrArCrArGrGrArArCrArArUdGdA; False
sense rArArArCrGrCrCrUrArCrGrGrGrArGrUrCrArAdTdT / antisense rUrUrGrArCrUrCrCrCrGrUrArGrGrCrGrUrUrUdGdC; True
sense rGrCrCrCrUrCrCrUrGrUrGrArCrCrUrCrCrArUdTdT / antisense rArUrGrGrArGrGrUrCrArCrArGrGrArGrGrGrCdAdC; True
sense rUrArCrUrCrUrUrGrCrUrCrUrCrUrGrGrArGrUdTdT / antisense rArCrUrCrCrArGrArGrArGrCrArArGrArGrUrAdGdA; False
sense rArCrUrGrArUrGrUrUrCrCrUrUrGrUrGrGrArCdTdT / antisense rGrUrCrCrArCrArArGrGrArArCrArUrCrArGrUdGdA; False
sense rUrCrArUrUrGrUrUrCrCrUrGrUrGrArArCrUrGdTdT / antisense rCrArGrUrUrCrArCrArGrGrArArCrArArUrGrAdAdA; False
sense rUrUrUrGrCrArGrUrUrGrGrArGrArUrUrCrArGdTdT / antisense rCrUrGrArArUrCrUrCrCrArArCrUrGrCrArArAdCdG; False
sense rCrCrArCrArUrGrGrUrGrUrGrGrArArUrCrUrGdTdT / antisense rCrArGrArUrUrCrCrArCrArCrCrArUrGrUrGrGdCdA; False
sense rArGrArCrUrArCrArGrUrUrUrCrUrUrUrCrCrCdTdT / antisense rGrGrGrArArArGrArArArCrUrGrUrArGrUrCrUdGdC; False
sense rCrUrUrGrArGrGrGrArGrArGrUrUrGrUrArCrCdTdT / antisense rGrGrUrArCrArArCrUrCrUrCrCrCrUrCrArArGdCdC; False
sense rArGrGrUrCrArCrCrArGrArGrUrGrGrArArArCdTdT / antisense rGrUrUrUrCrCrArCrUrCrUrGrGrUrGrArCrCrUdTdT; True
sense rUrUrGrCrCrUrCrCrCrUrUrGrArGrGrCrGrUrCdTdT / antisense rGrArCrGrCrCrUrCrArArGrGrGrArGrGrCrArAdTdC; False
sense rUrGrArArGrCrUrGrGrUrCrUrGrUrGrGrCrArGdTdT / antisense rCrUrGrCrCrArCrArGrArCrCrArGrCrUrUrCrAdGdA; False
sense rUrGrGrCrUrCrUrGrUrCrUrCrUrCrUrGrCrCrAdTdT / antisense rUrGrGrCrArGrArGrArGrArCrArGrArGrCrCrAdCdC; False
sense rArCrArCrCrArGrArGrCrCrUrGrCrCrCrCrArCdTdT / antisense rGrUrGrGrGrGrCrArGrGrCrUrCrUrGrGrUrGrUdGdA; False
sense rCrCrCrGrGrGrGrCrUrGrArGrArArArGrUrUrCdTdT / antisense rGrArArCrUrUrUrCrUrCrArGrCrCrCrCrGrGrGdAdT; True
sense rCrUrCrUrGrUrCrUrCrUrCrUrGrCrCrArCrArUdTdT / antisense rArUrGrUrGrGrCrArGrArGrArGrArCrArGrArGdCdC; False

// data source = the OligoGym collection
